Provide the reported EC50 of each item.
- Test system: Zika virus
- PROTOCOL_TEXT: Functional CPE-based assay to measure dose dependent changes in antiviral-drug inhibitory efficacy against Zika virus MR766 in Vero E6 miRFP670 cells. Cells are treated with antiviral candidates that are serially diluted. EC50 is reported via analysis of MTS assay as a readout of CPE. The assay has been performed by KU Leuven.
- Format: organism-based, Chlorocebus sabaeus, Vero C1008
- CONDITION_SUMMARY: Zika virus, Vero C1008

Give the reported EC50 for this molecule. `O=C1Cc2c(cccc2C(=O)Nc2ccc3c(c2)CNC3)N1`
> 50 µM

Give the reported EC50 for this molecule. `CCc1nc2c(C(=O)Nc3ccc4c(c3)CNC4)cc(Br)cc2[nH]1`
> 50 µM

Give the reported EC50 for this molecule. `NCc1cccc(NC(=O)c2cc(Cl)cc(C(N)=O)c2)c1`
< 0.391 µM

Give the reported EC50 for this molecule. `N#C[C@H](Nc1ccc2c(c1)CNC2)c1cc(Cl)cc2[nH]ncc12`
42.5 µM

Give the reported EC50 for this molecule. `NCc1cccc(NC(=O)c2cc(Cl)cc3c2cnn3CC2CC2)c1`
> 50 µM

Give the reported EC50 for this molecule. `O=C(O)COc1cccc(NC(=O)c2cc(Cl)cc(NC(=O)OCc3ccccc3)c2)c1`
> 50 µM
